Give pIC50 for every item shown.
# Test Description: Cytostatic activity against human CEM-DNR-bulk cells after 72 hrs by MTT assay
# Format: functional, cell-based
pIC50: −log10 of the molar value.

Record COc1ncnc2c1c(-c1ccccc1)cn2[C@@H]1O[C@H](CO)[C@@H](O)[C@H]1O . Reported pIC50: < 4.70

Summary for this compound, Cc1ncnc2c1c(I)cn2[C@@H]1O[C@H](CO)[C@@H](O)[C@H]1O : pIC50 is 4.90

Input O=c1[nH]cnc2c1c(-c1cc3ccccc3o1)cn2[C@@H]1O[C@H](CO)[C@@H](O)[C@H]1O . Output pIC50: < 4.70

pIC50 for Nc1nc(N)c2c(-c3ccoc3)cn([C@@H]3O[C@H](CO)[C@@H](O)[C@H]3O)c2n1 is < 4.70

Query Cc1ncnc2c1c(-c1cc3ccccc3o1)cn2[C@@H]1O[C@H](CO)[C@@H](O)[C@H]1O yields pIC50 of < 4.70

// field: pIC50; key: CN(C)c1ncnc2c1c(-c1cccs1)cn2[C@@H]1O[C@H](CO)[C@@H](O)[C@H]1O ; value = < 4.70

The value of pIC50 measured for the compound CNc1ncnc2c1c(-c1ccoc1)cn2[C@@H]1O[C@H](CO)[C@@H](O)[C@H]1O turned out to be < 4.70

What the record says about Nc1ncnc2c1c(-c1cccs1)cn2[C@@H]1O[C@H](CO)[C@@H](O)[C@H]1O : pIC50 is 6.77

GET /value?item= CN(C)c1ncnc2c1c(-c1ccoc1)cn2[C@@H]1O[C@H](CO)[C@@H](O)[C@H]1O &field=pIC50 returns < 4.70

====

# Tested on: K562
# Test Description: Cytostatic activity against human K562 cells after 72 hrs by MTT assay
# Type: functional, cell-based
# Particulars: K562, 72 h
Observed Property: IC50 (µM)
Quick reminder: number only, in µM, skip the unit.

IC50 in this record for C#Cc1cn([C@@H]2O[C@H](CO)[C@@H](O)[C@H]2O)c2ncnc(N(C)C)c12 : 0.11

Entry CSc1ncnc2c1c(-c1ccoc1)cn2[C@@H]1O[C@H](CO)[C@@H](O)[C@H]1O ; IC50 = 0.06

IC50 for Cc1ncnc2c1c(-c1cc3ccccc3o1)cn2[C@@H]1O[C@H](CO)[C@@H](O)[C@H]1O is 19.5

The value of IC50 measured for the compound CSc1ncnc2c1c(-c1cc3ccccc3o1)cn2[C@@H]1O[C@H](CO)[C@@H](O)[C@H]1O turned out to be 17.2

Note to self: IC50 recorded for Nc1ncnc2c1c(-c1ccco1)cn2[C@@H]1O[C@H](CO)[C@@H](O)[C@H]1O was 0.04

IC50 in this record for Nc1ncnc2c1c(-c1cccs1)cn2[C@@H]1O[C@H](CO)[C@@H](O)[C@H]1O : 0.03

// recorded IC50 for C#Cc1cn([C@@H]2O[C@H](CO)[C@@H](O)[C@H]2O)c2ncnc(SC)c12 : 0.03

CSc1ncnc2c1c(-c1ccco1)cn2[C@@H]1O[C@H](CO)[C@@H](O)[C@H]1O has a reported IC50 of 0.04

Lab note: Cc1ncnc2c1c(-c1ccsc1)cn2[C@@H]1O[C@H](CO)[C@@H](O)[C@H]1O gave IC50 of 0.32

Form field IC50, entry CSc1ncnc2c1c(-c1cccs1)cn2[C@@H]1O[C@H](CO)[C@@H](O)[C@H]1O : 11.6

Documented IC50 of C#Cc1cn([C@@H]2O[C@H](CO)[C@@H](O)[C@H]2O)c2ncnc(C)c12 : 6.92

====

# Tested on: BJ
# Test Description: Cytostatic activity against human BJ cells after 72 hrs by MTT assay
# Type: ADME, cell-based
Assignment: determine reported IC50 for the given molecules.

Record CNc1ncnc2c1c(-c1cccs1)cn2[C@@H]1O[C@H](CO)[C@@H](O)[C@H]1O ; system BJ; IC50 = > 100 µM

Per the reported BJ data, COc1nc(N)nc2c1c(-c1ccco1)cn2[C@@H]1O[C@H](CO)[C@@H](O)[C@H]1O has IC50 of > 100 µM

Per the reported BJ data, Nc1nc2c(c(-c3ccccc3)cn2[C@@H]2O[C@H](CO)[C@@H](O)[C@H]2O)c(=O)[nH]1 has IC50 of > 100 µM

Let me check: Nc1nc2c(c(-c3ccoc3)cn2[C@@H]2O[C@H](CO)[C@@H](O)[C@H]2O)c(=O)[nH]1 , system BJ, measured IC50 is 21.5 µM

Response field IC50 (BJ) for item CSc1ncnc2c1c(-c1ccsc1)cn2[C@@H]1O[C@H](CO)[C@@H](O)[C@H]1O : 95.8 µM

Lab note: molecule CN(C)c1ncnc2c1c(-c1cc3ccccc3o1)cn2[C@@H]1O[C@H](CO)[C@@H](O)[C@H]1O tested on BJ; recorded IC50 was > 100 µM

Known value: BJ IC50 of the molecule Nc1nc(N)c2c(-c3ccoc3)cn([C@@H]3O[C@H](CO)[C@@H](O)[C@H]3O)c2n1 equals > 100 µM

Tested system BJ; IC50 recorded for Cc1nc(N)c2c(-c3ccsc3)cn([C@@H]3O[C@H](CO)[C@@H](O)[C@H]3O)c2n1 was > 100 µM

// assay BJ, entry COc1nc(N)nc2c1c(-c1cccs1)cn2[C@@H]1O[C@H](CO)[C@@H](O)[C@H]1O , IC50 value = 99.9 µM

====

# System: K562
# Test Description: Cytostatic activity against human K562 cells after 72 hrs by MTT assay
# Assay type: functional, cell-based
# Particulars: K562, 72 h
I'd appreciate it if you could supply pIC50 values for the items below.
Please report pIC50 as the negative decimal logarithm of the molar concentration, giving only the number.

pIC50 measured on CN(C)c1ncnc2c1ccn2[C@@H]1O[C@H](CO)[C@@H](O)[C@H]1O = 5.28

pIC50 for COc1ncnc2c1c(-c1cccs1)cn2[C@@H]1O[C@H](CO)[C@@H](O)[C@H]1O is 7.15

====

# Test system: HL-60
# Test Description: Antiproliferative activity against human HL60 cells after 72 hrs by XTT assay
# Type: functional, cell-based
# Particulars: HL-60, 72 h
pIC50: −log10 of the molar value.
Observed Property: pIC50

Input O=c1[nH]cnc2c1c(-c1ccco1)cn2[C@@H]1O[C@H](CO)[C@@H](O)[C@H]1O . Output pIC50: 5.66

For record CNc1ncnc2c1ccn2[C@@H]1O[C@H](CO)[C@@H](O)[C@H]1O the listed pIC50 is 4.89

Recorded result, COc1nc(N)nc2c1c(-c1ccoc1)cn2[C@@H]1O[C@H](CO)[C@@H](O)[C@H]1O , pIC50: < 4.70

The value of pIC50 measured for the compound COc1nc(N)nc2c1c(-c1cccs1)cn2[C@@H]1O[C@H](CO)[C@@H](O)[C@H]1O turned out to be < 4.70

response.value for Nc1nc(N)c2c(-c3ccoc3)cn([C@@H]3O[C@H](CO)[C@@H](O)[C@H]3O)c2n1 (field: pIC50) = < 4.70

Form: compound = CNc1ncnc2c1c(-c1ccccc1)cn2[C@@H]1O[C@H](CO)[C@@H](O)[C@H]1O ; pIC50 = < 4.70

# pIC50 of Nc1nc(N)c2c(-c3ccccc3)cn([C@@H]3O[C@H](CO)[C@@H](O)[C@H]3O)c2n1 = < 4.82

Please fill in: pIC50 reported for CSc1ncnc2c1ccn2[C@@H]1O[C@H](CO)[C@@H](O)[C@H]1O = 5.14

Notebook: C#Cc1cn([C@@H]2O[C@H](CO)[C@@H](O)[C@H]2O)c2ncnc(OC)c12 , pIC50 read as 6.72

Short answer for C#Cc1cn([C@@H]2O[C@H](CO)[C@@H](O)[C@H]2O)c2ncnc(N(C)C)c12 : pIC50 was 6.54

The compound identified as COc1nc(N)nc2c1c(-c1ccco1)cn2[C@@H]1O[C@H](CO)[C@@H](O)[C@H]1O registered its pIC50 at < 4.70

Lab note: measured pIC50 of Nc1nc(N)c2c(-c3ccco3)cn([C@@H]3O[C@H](CO)[C@@H](O)[C@H]3O)c2n1 was < 4.70

Summary for this compound, CSc1ncnc2c1c(-c1cc3ccccc3o1)cn2[C@@H]1O[C@H](CO)[C@@H](O)[C@H]1O : pIC50 is 5.92

# pIC50 (compound: COc1ncnc2c1c(-c1ccsc1)cn2[C@@H]1O[C@H](CO)[C@@H](O)[C@H]1O ) is 6.89

Note to self: pIC50 recorded for O=c1[nH]cnc2c1c(-c1ccccc1)cn2[C@@H]1O[C@H](CO)[C@@H](O)[C@H]1O was < 4.70

Noted for Nc1nc2c(c(-c3cccs3)cn2[C@@H]2O[C@H](CO)[C@@H](O)[C@H]2O)c(=O)[nH]1 : its pIC50 reads < 4.70

Quick note, pIC50 for Nc1nc2c(c(-c3cc4ccccc4o3)cn2[C@@H]2O[C@H](CO)[C@@H](O)[C@H]2O)c(=O)[nH]1 landed at < 4.70

Query Nc1nc(N)c2c(-c3ccsc3)cn([C@@H]3O[C@H](CO)[C@@H](O)[C@H]3O)c2n1 yields pIC50 of < 4.70

The measured values listed here are drawn from ChEMBL document CHEMBL3124843.
